Biological target: T1, Cynomolgus CD3εδ heterodimeric Fc fusion (Cy CD3εδ Fc) (cynomolgus)
T1 chain 1: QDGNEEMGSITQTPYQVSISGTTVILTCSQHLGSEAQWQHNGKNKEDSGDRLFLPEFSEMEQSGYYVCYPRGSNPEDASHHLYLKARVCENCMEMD
T1 chain 2: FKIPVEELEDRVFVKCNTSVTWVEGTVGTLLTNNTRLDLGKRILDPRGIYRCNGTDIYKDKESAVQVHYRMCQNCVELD
Test: IgG, avid; method not named at the table (ForteBio BLI in Methods)
hey, just use YES if measured Kd is less than 0.4 nM, otherwise NO

{"columns": ["BINDER", "ANSWER_LABEL"],
 "data": [
  ["ADI-26908 IgG1 (antibody, V domains shown) VH: QVQLVQSGAEVKKPGASVKVSCKASGFNIKDYYMHWVRQAPGQRLEWMGWIDLEEGNTIYDAKFQGRVTITRDTSASTAYMELSSLRSEDTAVYYCARDAYGRYFYDVWGQGTLVTVSS VL: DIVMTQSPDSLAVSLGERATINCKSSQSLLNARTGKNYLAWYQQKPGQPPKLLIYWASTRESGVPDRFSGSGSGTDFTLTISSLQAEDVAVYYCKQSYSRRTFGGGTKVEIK", "YES"],
  ["ADI-26906 IgG1 (antibody, V domains shown) VH: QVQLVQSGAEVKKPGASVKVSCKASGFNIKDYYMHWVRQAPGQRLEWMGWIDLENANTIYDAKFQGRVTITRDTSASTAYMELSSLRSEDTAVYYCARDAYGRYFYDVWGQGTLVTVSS VL: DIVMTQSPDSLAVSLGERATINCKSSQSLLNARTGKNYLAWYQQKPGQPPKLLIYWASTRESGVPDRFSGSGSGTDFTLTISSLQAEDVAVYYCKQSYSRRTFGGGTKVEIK", "YES"],
  ["ADI-26915 IgG1 (antibody, V domains shown) VH: QVQLVQSGAEVKKPGASVKVSCKASGFNIKDYYMHWVRQAPGQRLEWMGWIDLEEGNTIYDAKFQGRVTITRDTSASTAYMELSSLRSEDTAVYYCARDVLGRYFYDVWGQGTLVTVSS VL: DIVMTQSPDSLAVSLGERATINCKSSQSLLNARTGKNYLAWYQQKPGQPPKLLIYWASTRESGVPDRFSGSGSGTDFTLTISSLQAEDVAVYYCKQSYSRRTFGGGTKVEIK", "NO"],
  ["ADI-22523 IgG1 (antibody, V domains shown) VH: QVQLVQSGAEVKKPGASVKVSCKASGFNIKDYYMHWVRQAPGQRLEWMGWIDLENGNTIYDPKFQGRVTITRDTSASTAYMELSSLRSEDTAVYYCARDGYGRYFYDVWGQGTLVTVSS VL: DIVMTQSPDSLAVSLGERATINCKSSQSLLNSRTGKNYLAWYQQKPGQPPKLLIYWASTRESGVPDRFSGSGSGTDFTLTISSLQAEDVAVYYCKQSYSRRTFGGGTKVEIK", "YES"]
]}
